molecular target: human Fc (human); assay: ELISA, negative control
Quantity: optical density (OD)
Give your result in OD as a bare value.

Solved cases below.
1) 371_B10 (antibody, V domains shown) VH: EVQLLESGGGLVQPGGSLRLSCAASGFTFDSYSMNWVRQAPGKGLEWVSNINYNGGYTGYADSVKGRFTISRDNSKNTLYLQMNSLRAEDTAVYYCARSATWHDTHLDYWGQGTLVTVSS VL: DIQMTQSPSSLSASVGDRVTITCRASQSIVSYVNWYQQKPGKAPKLLIYAATSRASGVPSRFSGSGSGTDFTLTISSLQPEDFATYYCQQSYDLPLTFGGGTKVEIK = 0.387
2) 370_D05 (antibody, V domains shown) VH: EVQLLESGGGLVQPGGSLRLSCAASGFTFDDYSMNWVRQAPGKGLEWVSNINYNGGYKGYADSVKGRFTISRDNSKNTLYLQMNSLRAEDTAVYYCARGANWHDTALDYWGQGTLVTVSS VL: DIQMTQSPSSLSASVGDRVTITCRASQSIITYLNWYQQKPGKAPKLVIYAATSRHSGVPSRFSGSGSGTDFTLTISSLQPEDFATYYCQQSYDTPLTFGGGTKVEIK = 0.333
3) 373_A09 (antibody, V domains shown) VH: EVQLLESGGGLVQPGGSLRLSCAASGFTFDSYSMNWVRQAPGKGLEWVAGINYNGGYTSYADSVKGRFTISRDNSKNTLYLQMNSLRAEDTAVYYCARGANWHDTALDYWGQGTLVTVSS VL: DIQMTQSPSSLSASVGDRVTITCRASQSILTYLNWYQQKPGKAPKLLIYAATSLASGVPSRFSGSGSGTDFTLTISSLQPEDFATYYCQQSYDTPLTFGGGTKVEIK = 0.248
4) 371_H08 (antibody, V domains shown) VH: EVQLLESGGGLVQPGGSLRLSCAASGFTFSSYGMNWVRQAPGKGLEWVASINYNGGYKGYADSVKGRFTISRDNSKNTLYLQMNSLRAEDTAVYYCARGANWHDTHLDYWGQGTLVTVSS VL: DIQMTQSPSSLSASVGDRVTITCRASQSIISYVNWYQQKPGKAPKLVIYAVTSRASGVPSRFSGSGSGTDFTLTISSLQPEDFATYYCQQSYDTPLTFGGGTKVEIK = 0.309
5) 368_H02 (antibody, V domains shown) VH: EVQLLESGGGLVQPGGSLRLSCAASGFTFSSYGMNWVRQAPGKGLEWVAGINYNSGYTSYADSVKGRFTISRDNSKNTLYLQMNSLRAEDTAVYYCARGANWHDTALDYWGQGTLVTVSS VL: DIQMTQSPSSLSASVGDRVTITCRASQSIVTYLNWYQQKPGKAPKLVIYAATSRASGVPSRFSGSGSGTDFTLTISSLQPEDFATYYCQQSYESPLTFGGGTKVEIK = 0.348

// switching to the query binder
Query: For the binder 375_C03 (antibody, V domains shown) VH: EVQLLESGGGLVQPGGSLRLSCAASGFTFDSYSMHWVRQAPGKGLEWVSGINYNGGYTSYADSVKGRFTISRDNSKNTLYLQMNSLRAEDTAVYYCARAATWHDTHLDYWGQGTLVTVSS VL: DIQMTQSPSSLSASVGDRVTITCRASQSILSYVNWYQQKPGKAPKLVIYAATSRASGVPSRFSGSGSGTDFTLTISSLQPEDFATYYCQQSYESPLTFGGGTKVEIK , give its measured optical density value.
Result: 0.217
